# credit: ChEMBL document CHEMBL4837181

Experiment: Half life in female cynomolgus monkey at 75 mg/kg, po measured on day 1
Format: ADME, organism-based, Macaca fascicularis
Settings: in vivo
Property Name: half-life (h)
Entry rule: numbers only, all in h.

Q: Which value of half-life has been reported for Cn1cc(C[C@@H](N)C(=O)O)c2ccccc21 [INDOXIMOD] in the records?
Result: 1.8

====

Test: Stability in mouse plasma assessed as parent compound remaining measured after 2 hrs by LC-MS/MS analysis
Type: ADME, cell-free
Conditions: read-out: Stabilty
Where a SMILES comes first, the peptide text is derived from it. [ ]: non-standard residue; d: D form. dTrp(1-Me) = Cn1cc(C[C@@H](N)C(=O)O)c2ccccc21
# remaining at 2 h annotations
Numeric answer plus unit only.

[[record]]
compound = "CCOC(=O)[C@@H](Cc1cn(C)c2ccccc12)NC(=O)[C@@H](N)CC(C)C.Cl"
result = "0%"


Q: Which value of remaining at 2 h has been reported for `CCOC(=O)[C@@H](Cc1cn(C)c2ccccc12)NC(=O)[C@@H](N)[C@@H](C)CC.Cl` in the records?
Result: 0%

Q: Which value of remaining at 2 h has been reported for Cl.Cn1cc(C[C@@H](NC(=O)CN)C(=O)O)c2ccccc21 (H-Gly-[dTrp(1-Me)]-OH) in the records?
Result: 100%

Q: Which value of remaining at 2 h has been reported for CC(C)C(NC(=O)[C@H](N)Cc1cn(C)c2ccccc12)C(=O)O.Cl (single isomer, unassigned) in the records?
Result: 89%
